# Tested on: hog liver carboxyesterase (HLE)
# measurement notes: HLE-triggered hydrolysis in the presence of glutathione (GSH), followed by HPLC-ESI-MS
# Assay type: in vitro ADME
# measurement context: hog; [GSH] = 5.4 mM, [HLE] = 28.0 units mL^-1, MES buffer, pH 6.2, 37 °C; read-out: half-life for the deacetylation (converted)
endpoint: half-life at 0.4 mmol L^-1 (h)
State the answer as a number, implicitly in h.

Please give measured half-life at 0.4 mmol L^-1 of the following entry: CC(=O)OCC(C#N)(COP(=O)(OCC1OC(n2cc(C)c(=O)[nH]c2=O)CC1O)OCC(C#N)(COC(C)=O)C(=O)NCCc1ccccc1)C(=O)NCCc1ccccc1 (stereo not shown) 18
